TEST_SYSTEM: T1, hPDGFRb.mmh (human, UniProt P09619 33-531)
T1 construct: Soluble monomeric construct; also called soluble human PDGFR-beta.mmh
T1 sequence (P09619 other isoform, or with tags, fused parts or gaps): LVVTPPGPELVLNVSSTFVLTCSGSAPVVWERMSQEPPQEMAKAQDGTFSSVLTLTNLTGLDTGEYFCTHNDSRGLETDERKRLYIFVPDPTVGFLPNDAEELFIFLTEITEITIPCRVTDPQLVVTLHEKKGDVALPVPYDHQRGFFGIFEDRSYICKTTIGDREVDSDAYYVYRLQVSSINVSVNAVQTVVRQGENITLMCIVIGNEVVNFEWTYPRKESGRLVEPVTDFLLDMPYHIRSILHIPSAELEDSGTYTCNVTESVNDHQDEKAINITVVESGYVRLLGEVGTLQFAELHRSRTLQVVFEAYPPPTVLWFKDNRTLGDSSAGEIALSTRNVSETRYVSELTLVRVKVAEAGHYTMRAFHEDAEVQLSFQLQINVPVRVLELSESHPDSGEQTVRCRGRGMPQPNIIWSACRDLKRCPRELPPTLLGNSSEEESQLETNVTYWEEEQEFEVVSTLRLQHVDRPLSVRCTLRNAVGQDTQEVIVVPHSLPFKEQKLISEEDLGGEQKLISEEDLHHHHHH
PROTOCOL: SPR, mAb captured, 37 C
OBSERVATION_TYPE: kon
Field: value (include unit after the number)

Request: kon for H4H3103S (antibody, human IgG4, V domains shown, human IgG4 Fc (H4H prefix)) VH: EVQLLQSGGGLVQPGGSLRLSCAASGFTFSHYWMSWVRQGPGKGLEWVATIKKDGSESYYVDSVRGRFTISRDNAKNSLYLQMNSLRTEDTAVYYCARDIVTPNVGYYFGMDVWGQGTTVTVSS VL: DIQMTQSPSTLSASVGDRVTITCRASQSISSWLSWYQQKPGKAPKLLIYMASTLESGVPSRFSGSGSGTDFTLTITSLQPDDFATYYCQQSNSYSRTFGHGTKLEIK ?
Result: 492000 M⁻¹ s⁻¹
